The measurements presented in this section are drawn from ChEMBL document CHEMBL4689842.

- Test system: Fibroblast
- experiment: Incucyte cell viability with human fibroblast; note: filed as whole numbers so only -1 and 0 and 1 occur
- Assay type: toxicity, cell-based
- applied_conditions: 18 h, 10 µM, compound concentration 10 uM, replicate number 1, timepoint 18 hours
readout_type: Growth Rate
Answer with a bare number; do not write a unit.

Query :: Report Growth Rate on Fibroblast for this entry: FC(F)c1nc2ccccc2n1-c1nc(N2CCOCC2)nc(N2CCOCC2)n1 [ZSTK-474]
Result :: 0

* * *

- System: HEK-293T
- experiment: Multiplex assay against HEK293T
- Format: toxicity, cell-based
- applied_conditions: human, 24 h, 1 µM, compound concentration 1 uM, replicate 2
Reported Population Apoptotic (%) values for a set of compounds
Numbers only here, please. The scale is %.

Example entries begin here.
# compound, value_units, reading
records = [
    ("c1ccc2oc(-c3csc(C4CCN(Cc5nc6ncccc6[nH]5)CC4)n3)cc2c1", "%", 15),
    ("CC(C)Oc1ccc(C(=O)N[C@H](CNC(=O)CN(C)C)Cc2ccc(-c3cn4cccc([C@H](C)O)c4n3)cc2)cc1Cl [GSK-923295A]", "%", 12),
    ("CC(=O)c1cc(-c2cc(C(=O)NC3CC3)ccc2C)c2ncccn12", "%", 10),
]

Let us move to another entry and its Population Apoptotic (%).
Query :: Report Population Apoptotic (%) on HEK-293T for this entry: N#Cc1cnc(Nc2cc(NC[C@H]3CNCCO3)c(C(F)(F)F)cn2)cn1
Result :: 5
